- ASSAY_SUMMARY: GFP drop in mixed WT/humanized-ribosome E. coli culture – GFP/RFP fluorescence, OD600, single point, bacterial rRNA inhibitor project, primary screen (AID 720706)
- PARTICULARS: E. coli WT GFP vs humanized-ribosome RFP mutants, 24 h; stronger effect = lower value, DMSO median 0, no signal -100
Out of some 350,000 compounds screened, about 5,500 (1.6%) were called active. The list comes from a sample in which actives are over-represented; it also holds close analogues and randomly drawn compounds.
VALUE_TYPE: GFP signal change (wild-type ribosome)

>>> df
                                   compound    measured_result
0      Cc1cccc(N=Nc2c(O)[nH]c3ccc(F)cc23)c1    -28.8% (active)
1  Cc1n[nH]c(C)c1S(=O)(=O)N1CCCC(C(=O)Nc2ccc(Br)cc2)C1 (stereo not drawn)    -18.5% (active)
2  COC(=O)c1cccc(NC(=O)c2cccc(N3C(=O)CCC3=O)c2)c1  0.987% (inactive)

----------
- ASSAY_SUMMARY: GFP drop in mixed WT/humanized-ribosome E. coli culture – GFP/RFP fluorescence, OD600, single point, bacterial rRNA inhibitor project, primary screen (AID 720706)
- PARTICULARS: E. coli WT GFP vs humanized-ribosome RFP mutants, 24 h; stronger effect = lower value, DMSO median 0, no signal -100
Among all 350,000 compounds or so, about 5,500 (1.6%) were called active. Many of the other results were omitted from the sample, so actives are more common in it than they were.
VALUE_TYPE: GFP signal change (wild-type ribosome) (%)

In [3]: df
Out[3]:
                                    molecule  value_units  measured_result
 0  O=C(Nc1ccccc1N1CCN(C(=O)c2ccccc2)CC1)c1ccco1            %            -8.24
 1  CCNC(=O)[C@H]1[C@H](CO)[C@H]2Cn3c(cccc3=O)[C@@H]1N2Cc1cc(F)ccc1F            %            0.156
 2  O=C(NCc1ccc2c(c1)OCO2)c1c(-c2ccsc2)sc2ccccc12            %            -2.63
 3       O=C(CCc1ccc(O)cc1)NN=Cc1cc(Br)ccc1O            %            -37.7
 4  COCc1cn(CC[C@H]2CC[C@H](NC(=O)Cc3cccnc3)[C@H](CO)O2)nn1            %            -2.43
 5           O=C(NCc1ccc2c(c1)OCO2)c1sccc1Br            %              -28
 6  N#Cc1ccc(-c2ccc(C3[C@@H]4CN(S(=O)(=O)c5cccc(Cl)c5)C[C@H]3N4)cc2)cc1 (some centres not stated)            %            -35.6
 7  COCC(=O)N1CC2(C1)CN(C(=O)COC)[C@@H](CO)c1c2c2ccc(OC)cc2n1C            %             4.63
 8  O=C(NCCS(=O)(=O)N1CCN(c2ccccc2)CC1)c1ccco1            %            -1.63
 9  COc1ccccc1NC(=S)N1CCN(C(c2ccccc2)c2ccccc2)CC1            %             5.66
10  CCN(CC)CCN(C(=O)c1ccc2c(c1)CCCC2)c1nc2c(OC)cccc2s1            %            -52.2
11  Cc1ccc(C)c(NC(=O)c2cc(-c3cc(C)cc(C)c3O)n[nH]2)c1            %            -26.5
12  Cc1ccc(C)c(NC(=O)NNC(=O)c2ccc3ccccc3c2O)c1            %             7.08
13          COC(=O)c1cc(OC)ccc1-c1ccc(OC)cc1            %            -32.6
14  O=C(NCCS(=O)(=O)N1CCN(c2ccccc2)CC1)c1cc(=O)c2ccccc2o1            %             1.78
15  Cc1cc(NC(=O)Nc2ccc(Cl)cc2)n(-c2ccccc2)n1            %            -29.1
16  COc1ccc(NC(=O)c2cc3nc(-c4ccccc4)cc(C)n3n2)cc1OC            %              -22

----------
- ASSAY_SUMMARY: GFP drop in mixed WT/humanized-ribosome E. coli culture – GFP/RFP fluorescence, OD600, single point, bacterial rRNA inhibitor project, primary screen (AID 720706)
- PARTICULARS: E. coli WT GFP vs humanized-ribosome RFP mutants, 24 h, DMSO median 0, no signal -100
Out of some 350,000 compounds screened, about 5,500 (1.6%) were called active.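 Rule for the calls: active = significant combined selectivity score with lowered wild-type GFP, culture density cut under 30%, mutant RFP and density less affected; inactive = any of these conditions unmet.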 The entries come from a sample that favours actives as a whole.
Outcomes: active, inactive

                                   molecule  group_label
0  CCC(=O)N1CC2(CN(C(=O)Nc3ccccc3F)C2)c2c([nH]c3cc(OC)ccc23)[C@H]1CO     inactive
1  CC1CCCC(NC(=O)COC(=O)[C@@H]2CC(O)CN2S(=O)(=O)c2ccc3c(c2)OCCO3)C1C (stereo partly drawn)       active
2  C[C@@H]1CN([C@@H](C)CO)C(=O)c2cc(-c3ccc(F)cc3)cnc2O[C@H]1CN(C)C(=O)c1ccncc1     inactive

----------
- ASSAY_SUMMARY: GFP drop in mixed WT/humanized-ribosome E. coli culture – GFP/RFP fluorescence, OD600, single point, bacterial rRNA inhibitor project, primary screen (AID 720706)
- PARTICULARS: E. coli WT GFP vs humanized-ribosome RFP mutants, 24 h; measured here: RFP humanized mutant strains, DMSO median 0, no signal -100, concentration not given here
The campaign covered roughly 350,000 compounds. About 5,500 (1.6%) were called active. Shown is part of a subset that was picked to be rich in actives.
VALUE_TYPE: RFP signal change

                           substance_smiles  measured_result
0  Cc1cc(C)n2nc(SCC(=O)NC(=O)NCc3ccco3)nc2n1          -0.644%
1  O=C(C[C@@H]1CC[C@H]2[C@@H](COC[C@H](O)CN2C(=O)Nc2ccccc2)O1)NCCc1ccncc1           -0.44%
2  Nc1nonc1-n1nnc(C(=O)N/N=C/c2ccc(Cl)cc2)c1-c1ccc2c(c1)OCO2           -3.98%
3  COc1ccc(-n2c(SCC(=O)NCc3ccco3)nnc2-c2c[nH]c3ccccc23)cc1             3.4%

----------
- ASSAY_SUMMARY: GFP drop in mixed WT/humanized-ribosome E. coli culture – GFP/RFP fluorescence, OD600, single point, bacterial rRNA inhibitor project, primary screen (AID 720706)
- PARTICULARS: E. coli WT GFP vs humanized-ribosome RFP mutants, 24 h; stronger effect = lower value, DMSO median 0, no signal -100
In all, about 350,000 compounds went through this assay and about 5,500 (1.6%) were called active. Shown is part of a subset that was picked to be rich in actives.
Recorded GFP signal change (wild-type ribosome) for the following compounds
VALUE_TYPE: GFP signal change (wild-type ribosome) (%)

SUBSTANCE_SMILES	MEASURED_RESULT
COc1ccc2c3c([nH]c2c1)[C@@H](CO)N(C(=O)C1CC1)CC31CCN(C(=O)c2ccncc2)CC1	4.87
COc1ccc(OC)c(-c2csc(NC(=O)C3=NNC(=O)CC3)n2)c1	-21.6
Cc1onc(-c2c(F)cccc2Cl)c1C(=O)Nc1cccc(S(=O)(=O)N2CCCCC2)c1	-6.88
C[C@@H]1CN([C@@H](C)CO)S(=O)(=O)c2ccc(C#CCN(C)C)cc2O[C@@H]1CN(C)S(=O)(=O)c1cccc(F)c1	-0.828
COc1ccc2c3c([nH]c2c1)[C@@H](CO)N(Cc1ccccc1OC)CC31CCN(C)CC1	-0.945
C[C@@H](Nc1nc(-c2ccccc2)nc2c1oc1ccccc12)C(=O)O	-25.4
Cc1ccc(CSc2nsc(C)c2C#N)cc1	-24.5
COc1ccc2c3c(n(C)c2c1)[C@@H](CO)N(C)CC31CN(S(=O)(=O)c2cccs2)C1	0.733
COc1ccc(-c2ccc3n(c2=O)C[C@@H]2[C@@H](CO)[C@H](C(=O)Nc4ccccc4)[C@H]3N2C)cc1	-5.3
C[C@@H]1CCCCO[C@@H](CN(C)C(=O)Cc2ccccc2)[C@H](C)CN([C@H](C)CO)C(=O)c2cc(NC(=O)Cc3ccccc3)ccc2O1	-4.58
COc1cc(/C=N/NC(=S)Nc2cccnc2)cc(OC)c1O	1.59
COc1ccc2c3c([nH]c2c1)[C@@H](CO)N(C(=O)c1ccccc1)CC31CCN(C(=O)Nc2cccc(F)c2)CC1	-4.87
CC[C@H]1OC(=O)[C@H](C)[C@@H](O[C@H]2C[C@@](C)(OC)[C@@H](O)[C@H](C)O2)[C@H](C)[C@@H](O[C@@H]2O[C@H](C)C[C@H](N(C)C)[C@H]2O)[C@](C)(O)C[C@@H](C)[C@@H]2N[C@@H](COCCOC)O[C@H]([C@H]2C)[C@]1(C)O	-22.6
O=c1[nH]c(CSc2ccccc2)nc2c1oc1ccccc12	4.21
COc1ccc2c3c(n(C)c2c1)[C@@H](CO)N(C(C)=O)CC31CCN(Cc2ccc(Cl)cc2)CC1	-1.69
